The measured values listed here are drawn from PubChem BioAssay (NCI).

# Tested on: MDA-MB-468 breast
# experiment.summary: NCI-60 one-dose screen, 48 h
# condition.set: 10 µM unless noted
This is part of a sample that, as a whole, favours compounds with a hit. Of some 83,000 tested, about 20% had one in any assay. Calls of active or inactive are those of the source. How the source made its calls: active means growth percent below 10; inactive means the rest.
Tick one outcome: 1.0 = active, 0.0 = inactive

Answered examples (5):
INSERT INTO results (compound, assayed_target, category) VALUES
  ('O=C(O)C(c1ccccc1)N1C(=O)CSC1=S (stereo not drawn)', 'MDA-MB-468 breast', 0.0),
  ('CSc1nnc(C2=CC(=O)c3ccccc3C2=O)n1-c1ccccc1', 'MDA-MB-468 breast', 0.0),
  ('CCCCCCCCCCCCCCCC[N+]1(C)CCN(SN2CC[N+](C)(CCCCCCCCCCCCCCCC)CC2)CC1', 'MDA-MB-468 breast', 0.0),
  ('C=C1CC[C@H]2[C@@](C)(CCC3OC(c4ccc(OCc5cn(C6CC(OC(C)=O)C(OC(C)=O)C(COC(C)=O)O6)nn5)cc4)OC[C@]32C)[C@@H]1/C=C/C1=CCOC1=O (stereo partly drawn)', 'MDA-MB-468 breast', 0.0),
  ('O=C(CNc1nc(-c2cccc([N+](=O)[O-])c2)cs1)Nc1cccc([N+](=O)[O-])c1', 'MDA-MB-468 breast', 0.0);

(Q) Test call for this compound, please: `N#Cc1c(N)nc2c(c(-c3ccc(Cl)cc3)nn2-c2ccccc2)c1C#N`
(A) 0.0

(Q) Hi, sorry to bother you, what did the test record for `O=C1/C(=C/c2ccc([N+](=O)[O-])cc2)COc2ccc(O)c(O)c21` ?
(A) 1.0

(Q) Please let me know the test result on file for `Cn1nccc1Nc1nccc(-c2ccn([C@H](CO)c3ccc(Cl)c(F)c3)c(=O)c2)n1` .
(A) 0.0

###

Recorded growth for the following molecules
# System: HS 578T breast
# experiment.summary: NCI-60 one-dose screen, 48 h (100 = growth as untreated, 0 = no growth, -100 = all killed)
# condition.set: 10 µM
This is part of a sample that, as a whole, favours compounds with a hit. Of some 83,000 tested, about 20% had one in any assay.
Numeric answer only, unit % assumed.

In the examples that follow, each entry is paired with its recorded growth.
INSERT INTO results (molecule, assayed_target, measurement) VALUES
  ('COc1ccc(C2c3sc4ccc(C)cc4c3Oc3nc[nH]c(=O)c32)cc1 (stereo not drawn)', 'HS 578T breast', 78.5),
  ('COc1ccc(C2c3sc4ccc(C)cc4c3Oc3nc(N)nc(N)c32)cc1 (stereo not drawn)', 'HS 578T breast', 78.8);

Read the next record carefully.
HS 578T breast assay, molecule `Fc1ccc(/C=C/c2nc3ccccc3n3c(-c4ccc(Cl)cc4)nnc23)cc1` , recorded growth = 80.5

###

# System: MDA-MB-468 breast
# experiment.summary: NCI-60 one-dose screen, 48 h (100 = growth as untreated, 0 = no growth, -100 = all killed)
# condition.set: 10 µM unless noted
Compounds without any hit were thinned out: in the full panel of roughly 83,000, 20% have a hit. Calls of active or inactive are those of the source. Rule for the calls: active = growth percent below 10; inactive = the rest.
result.type: growth

Guide cases for growth, answers given:
INSERT INTO results (molecule, assayed_target, measurement) VALUES
  ('O=[N+]([O-])c1cccc(CN(Cc2cccc([N+](=O)[O-])c2O)c2ccccc2)c1O', 'MDA-MB-468 breast', '108% (inactive)'),
  ('CCCCCCCCCCCCNC(=O)[C@H]1CSC(c2cc(Br)cs2)N1 (stereo partly specified)', 'MDA-MB-468 breast', '-48.7% (active)'),
  ('CN1C(=O)C2(Nc3cc(Cl)ccc3S2)c2cc(Cl)ccc21 (stereo unspecified)', 'MDA-MB-468 breast', '106% (inactive)'),
  ('Clc1ccc2c(NCCCNc3nc(-n4ccnc4)nc4ccccc34)ccnc2c1', 'MDA-MB-468 breast', '53.3% (inactive)'),
  ('COc1cc2nc(-c3cnc(N(C)C)nc3)nc(NC3CCN(Cc4ccccc4)CC3)c2cc1OC', 'MDA-MB-468 breast', '-72.1% (active)');

Item: `CN(C)c1ccc2cc(-c3nc4ccccc4s3)c(N)nc2c1` | growth: 56.9% (inactive)

Entry `CS(=O)(=O)N(c1cc(-c2ccc3ncnc(Nc4cccc(Cl)c4)c3c2)cnc1Cl)S(C)(=O)=O` , growth reported as -42.1% (active)

###

# System: MDA-MB-468 breast
# experiment.summary: NCI-60 one-dose screen, 48 h (100 = growth as untreated, 0 = no growth, -100 = all killed)
# condition.set: 10 µM unless noted
About 83,000 compounds went through this panel and 20% of them were active in at least one assay; those are over-represented in the sample as a whole.
In this section we review reported growth values for a set of compounds.
Numbers only here, please. The scale is %.

Consider the following illustrative entries.
INSERT INTO measurements (compound, measurement) VALUES
  ('COc1cccc(-c2nc3sccn3c2/C=C/C(=O)c2ccc(C(F)(F)F)cc2)c1', 75.6),
  ('CC(=O)CC1CCCC1c1ccc2ccccc2c1 (centres undefined)', 101),
  ('O=C(COc1ccc(/C=C2\Cc3ccc(Cl)cc3C2=O)cc1)Nc1nc2ccccc2s1', 109);

Please examine the following record next.
The recorded growth for `N#C/C(=C\c1ccc(-c2ccccc2)o1)c1nc(-c2ccco2)cs1` is -32.4

###

# Tested on: MDA-MB-468 breast
# experiment.summary: NCI-60 one-dose screen, 48 h
# condition.set: 10 µM unless noted
# Method: Growth inhibition of the MDA-MB-468 human Breast tumor cell line is measured as a screen for anti-cancer activity. Cells are grown in 96 well plates and exposed to the test compound for 48 hours. Compounds are tested at a single concentration, which is 10^-5 M for most compounds. The reported endpoint is percent growth (GI% or GIPRCNT), where numbers from 0 - 100% represent growth inhibition, and numbers from -100% - 0 represent cell death. […]
This is part of a sample that, as a whole, favours compounds with a hit. Of some 83,000 tested, about 20% had one in any assay. The source made the active and inactive calls. The calls were made as follows: active = growth percent below 10; inactive = the rest.
Thanks in advance; please answer with one of these: active, inactive

Look over these answered cases.
INSERT INTO assay_data (molecule, category) VALUES
  ('O=C(N/N=C/c1ccc(OC(F)F)c(OC2CCCC2)c1)c1cnn2c1NC(c1ccccc1)C2 (stereo not given)', 'inactive'),
  ('COc1ccc(-c2nc3cc(Cl)c(Cl)cc3n2CC(=O)N=Nc2c(O)[nH]c3ccc(Br)cc23)cc1', 'active'),
  ('C#Cc1cccc(NC(=O)C2CCCCN2C(=O)CCl)c1 (stereo not given)', 'active'),
  ('COc1cc(NC(C)CCCN)c2ncccc2c1Sc1ccc(Cl)cc1 (stereo not given)', 'active');

Below: the item to evaluate.
(Q) Hi, sorry to bother you, what did the test record for `CCCCCC(C)(CC(=O)O)CC(=O)O` ?
(A) inactive

###

# System: MDA-MB-468 breast
# experiment.summary: NCI-60 one-dose screen, 48 h (100 = growth as untreated, 0 = no growth, -100 = all killed)
# condition.set: 10 µM unless noted
About 83,000 compounds went through this panel and 20% of them were active in at least one assay; those are over-represented in the sample as a whole. Calls of active or inactive are those of the source. How the source made its calls: active means growth percent below 10; inactive means the rest.
Each entry below carries its recorded growth.

Some compounds with known growth results, for comparison:
INSERT INTO assay_data (compound_structure, result_type, measurement) VALUES
  ('O=C(CSc1nnc(-c2ccc(Cl)cc2)o1)c1ccccc1', 'growth', '97.1% (inactive)'),
  ('COc1cc(C(=O)c2c(-c3ccccc3)oc3c(OC)cccc23)cc(OC)c1O', 'growth', '4.03% (active)');

Pending compound:
// growth value for `COc1ccc(-c2nn(-c3ccc(NC(=O)c4cc(Cl)cc(Cl)c4)cc3)cc2-c2ccncc2)cc1Cl` : 70.1% (inactive)

###

# Test system: MDA-MB-468 breast
# experiment.summary: NCI-60 one-dose screen, 48 h
# condition.set: 10 µM unless noted
Compounds without any hit were thinned out: in the full panel of roughly 83,000, 20% have a hit. Active and inactive are the calls of the source. How the source made its calls: active means growth percent below 10; inactive means the rest.
Answer with one of the outcomes Yes = active, No = inactive

Here's what some known entries look like.
INSERT INTO measurements (compound, assayed_target, category) VALUES
  ('O=C(c1ccccc1)N1N=C(c2ccc(-n3ccc(C(F)(F)F)n3)cc2)CC1c1ccc[nH]1 (centres undefined)', 'MDA-MB-468 breast', 'No'),
  ('Cc1cc2c([nH]1)CSc1cc(S(=O)(=O)c3ccccc3)c(=O)[nH]c1-2', 'MDA-MB-468 breast', 'No'),
  ('C=CCN(C)C', 'MDA-MB-468 breast', 'No'),
  ('Nc1nc2c(c(=O)[nH]1)C(c1ccc3c(c1)OCO3)C=C(C(=O)O)N2 (centres undefined)', 'MDA-MB-468 breast', 'No'),
  ('C[C@]12CCc3c(ccc4cc(O)ccc34)[C@@H]1C[C@H](O)[C@@H]2O', 'MDA-MB-468 breast', 'No');

(Q) For `O=[N+]([O-])c1ccc(N/N=C(\C(=N/Nc2ccc([N+](=O)[O-])cc2[N+](=O)[O-])c2ccccc2)c2ccccc2)c([N+](=O)[O-])c1` , what call appears in the results of this test?
(A) No

(Q) Record lookup: outcome of this test for `CNC(=O)c1cc(COc2nnc(Nc3ccc(Cl)cc3)c3ccoc23)ccn1` ?
(A) No

(Q) Identify the outcome logged in this assay for the compound shown: `Brc1ccc(-c2cn3ccnc3c(-c3ccc(Br)cc3)n2)cc1`
(A) No

(Q) So what was the verdict on `Cc1cc2c(C(C)C)c(O)c(O)c(C=Nc3ccccc3[N+](=O)[O-])c2c(O)c1-c1c(C)cc2c(C(C)C)c(O)c(O)c(C=Nc3ccccc3[N+](=O)[O-])c2c1O` in this test?
(A) No

(Q) Please let me know the test result on file for `CCOc1ccc([C@@H]2[C@@H](Oc3ccccc3)C(=O)N2c2cc(OC)c(OC)c(OC)c2)cc1` .
(A) No

(Q) Test call, this compound: `COc1ccc(-c2nc(-c3ccccc3)c(-c3ccccc3)n2C2CC2)cc1OC1CCCCC1`
(A) No
